B1: VH:VL chains; a variant is named by its letters at X, in order (parent)
chain 1: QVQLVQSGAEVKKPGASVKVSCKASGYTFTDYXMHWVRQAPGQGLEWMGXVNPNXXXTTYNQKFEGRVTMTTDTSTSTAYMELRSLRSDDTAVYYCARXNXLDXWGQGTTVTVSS
chain 2: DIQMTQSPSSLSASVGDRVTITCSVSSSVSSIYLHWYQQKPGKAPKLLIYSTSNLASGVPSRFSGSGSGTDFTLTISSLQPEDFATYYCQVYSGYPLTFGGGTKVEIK

# Variants of: B1
# MEASUREMENT PROTOCOL: yeast display scFab, FACS + sequencing
MEASURED PARAMETER: non-specific binding call

Below, each entry is followed by its recorded non-specific binding call result.
## Input Given the entry `YTRGADLA` , report its measured non-specific binding call.
## Output no binding

## Input Continue with `VRAEGSSV`
## Output no binding

## Input `YRAGGAWY` , same question.
## Output binds

## Input Next record, please: `YTTGGDVA`
## Output no binding

## Input How about `VKGGSFGS` ?
## Output binds

## Input Again, but for `YKGRGYWY`
## Output binds

Next:
## Input # input variant: `FRGEGAAD` ; wanted: its non-specific binding call
## Output binds

## Input And for `ATGTGSGA` ?
## Output no binding

## Input Now this one: `FRGKADVD`
## Output binds

## Input Next record, please: `VETGNDGA`
## Output no binding

## Input Please answer likewise for `YRARGDGV`
## Output no binding
